# Species on record: Rattus norvegicus
# MEASUREMENT_PROTOCOL: Open TG-GATES - Regimen: Single
# Format: toxicity, organism-based, Sprague-Dawley
# Set-up: regimen Single, gender Male, age 6 weeks
# CONDITIONS_USED: in vivo, po, 0 mg/kg, 3 h, tissue Plasma, route gavage, dose level Control
I'd be grateful if you could share measured BUN for these entries.
Numbers only, in mg/dL.

Provide reported BUN for each item, in the same order as listed.
1. CC[C@H]1[C@@H]2C[C@H]3[C@@H]4N(C)c5ccccc5[C@]45C[C@@H]([C@@H]2[C@H]5O)N3[C@@H]1O
2. CN(C)C(=N)N=C(N)N
3. ClC(Cl)(Cl)Cl [CARBON TETRACHLORIDE]

-- reply
1. 10.6
2. 9.2
3. 13.2

Provide reported BUN for each item, in the same order as listed.
1. CCc1oc2ccccc2c1C(=O)c1cc(Br)c(O)c(Br)c1
2. CC(C)N(CCC(C(N)=O)(c1ccccc1)c1ccccn1)C(C)C (centres undefined) [DISOPYRAMIDE]

-- reply
1. 12.2
2. 12.4

Provide reported BUN for each item, in the same order as listed.
1. CCC1(c2ccccc2)C(=O)NC(=O)NC1=O
2. CC1=C(CC(=O)O)c2cc(F)ccc2/C1=C\c1ccc([S+](C)[O-])cc1 (centres undefined)

-- reply
1. 10.8
2. 10.4

Provide reported BUN for each item, in the same order as listed.
1. O=NN(CCCl)C(=O)NC1CCCCC1
2. OCCOCCN1CCN(C(c2ccccc2)c2ccc(Cl)cc2)CC1 (centres undefined) [HYDROXYZINE]

-- reply
[14.6, 9]

---

I'd be grateful if you could share measured KIDNEY_R for these entries.
# Organism: Rattus norvegicus
# MEASUREMENT_PROTOCOL: Open TG-GATES - Regimen: Daily Repeat
# Format: toxicity, organism-based, Sprague-Dawley
# Set-up: regimen Daily Repeat, gender Male, age 6 weeks
# CONDITIONS_USED: in vivo, po, 0 mg/kg, […], tissue Kidney, route gavage, dose level Control, time 28 day
One number for each entry, in g.

Provide reported KIDNEY_R for each item, in the same order as listed.
1. CC1=C(CC(=O)O)c2cc(F)ccc2/C1=C\c1ccc([S+](C)[O-])cc1 (stereo not given)
2. O=NN(CCCl)C(=O)NC1CCCCC1

-- reply
1: 1.3; 2: 1.4

---

I'd be grateful if you could share measured KIDNEY_R for these entries.
# Species on record: Rattus norvegicus
# MEASUREMENT_PROTOCOL: Open TG-GATES - Regimen: Single
# Type: toxicity, organism-based, Sprague-Dawley
# Design: regimen Single, gender Male, age 6 weeks
# CONDITIONS_USED: in vivo, po, 0 mg/kg, 9 h, tissue Kidney, route gavage, dose level Control
Numbers only, in g.

Would you please look over these solved cases?
- CN(C)CCC=C1c2ccccc2COc2ccccc21 [DOXEPIN]: 0.9
- ClC(Cl)(Cl)Cl [CARBON TETRACHLORIDE]: 0.9
- CC[C@H]1[C@@H]2C[C@H]3[C@@H]4N(C)c5ccccc5[C@]45C[C@@H]([C@@H]2[C@H]5O)N3[C@@H]1O [AJMALINE]: 0.9
- CCC1(c2ccccc2)C(=O)NC(=O)NC1=O [PHENOBARBITAL]: 1
- CCc1oc2ccccc2c1C(=O)c1cc(Br)c(O)c(Br)c1 [BENZBROMARONE]: 1

Provide reported KIDNEY_R for each item, in the same order as listed.
1. CN(C)C(=N)N=C(N)N [METFORMIN]
2. O=NN(CCCl)C(=O)NC1CCCCC1 [LOMUSTINE]
3. CC(C)N(CCC(C(N)=O)(c1ccccc1)c1ccccn1)C(C)C (stereo not given) [DISOPYRAMIDE]

-- reply
1. 0.9
2. 0.9
3. 1

Provide reported KIDNEY_R for each item, in the same order as listed.
1. OCCOCCN1CCN(C(c2ccccc2)c2ccc(Cl)cc2)CC1 (stereo not given) [HYDROXYZINE]
2. CC1=C(CC(=O)O)c2cc(F)ccc2/C1=C\c1ccc([S+](C)[O-])cc1 (stereo not given)

-- reply
1: 0.9; 2: 0.9

---

# Species on record: Rattus norvegicus
# MEASUREMENT_PROTOCOL: Open TG-GATES - Regimen: Daily Repeat
# Assay type: toxicity, organism-based, Sprague-Dawley
# Parameters: regimen Daily Repeat, gender Male, age 6 weeks
# CONDITIONS_USED: in vivo, po, 0 mg/kg, […], tissue Blood, route gavage, dose level Control, time 28 day
MEASUREMENT_LABEL: APTT (s)
Numbers only, in s.

Would you please look over these solved cases?
• OCCOCCN1CCN(C(c2ccccc2)c2ccc(Cl)cc2)CC1 (stereo unspecified) [HYDROXYZINE] = 26.6
• CC1=C(CC(=O)O)c2cc(F)ccc2/C1=C\c1ccc([S+](C)[O-])cc1 (stereo unspecified) = 17.9
• CC(C)N(CCC(C(N)=O)(c1ccccc1)c1ccccn1)C(C)C (stereo unspecified) [DISOPYRAMIDE] = 24.9
• CN(C)CCC=C1c2ccccc2COc2ccccc21 [DOXEPIN] = 16.6
• O=NN(CCCl)C(=O)NC1CCCCC1 = 17.5
• CCCCc1oc2ccccc2c1C(=O)c1cc(I)c(OCCN(CC)CC)c(I)c1 = 21.2
• CC[C@H]1[C@@H]2C[C@H]3[C@@H]4N(C)c5ccccc5[C@]45C[C@@H]([C@@H]2[C@H]5O)N3[C@@H]1O = 17.6
• CN(C)C(=N)N=C(N)N = 17.2
• CCc1oc2ccccc2c1C(=O)c1cc(Br)c(O)c(Br)c1 = 16.6
• ClC(Cl)(Cl)Cl [CARBON TETRACHLORIDE] = 22.7

Then this compound:
-- ask Identify measured APTT associated with CCC1(c2ccccc2)C(=O)NC(=O)NC1=O
-- reply 17

---

# Species: Rattus norvegicus
# MEASUREMENT_PROTOCOL: Open TG-GATES - Regimen: Daily Repeat
# Assay type: toxicity, organism-based, Sprague-Dawley
# Parameters: regimen Daily Repeat, gender Male, age 6 weeks
# CONDITIONS_USED: in vivo, po, 0 mg/kg, […], route gavage, dose level Control, time 14 day
MEASUREMENT_LABEL: TERMINAL_BW

Would you please look over these solved cases?
* CC1=C(CC(=O)O)c2cc(F)ccc2/C1=C\c1ccc([S+](C)[O-])cc1 (stereo unspecified) | 336.8 g
* CCc1oc2ccccc2c1C(=O)c1cc(Br)c(O)c(Br)c1 | 315 g
* CCC1(c2ccccc2)C(=O)NC(=O)NC1=O | 296 g
* CC(C)N(CCC(C(N)=O)(c1ccccc1)c1ccccn1)C(C)C (stereo unspecified) [DISOPYRAMIDE] | 303.7 g
* CN(C)CCC=C1c2ccccc2COc2ccccc21 [DOXEPIN] | 310.4 g
* CC[C@H]1[C@@H]2C[C@H]3[C@@H]4N(C)c5ccccc5[C@]45C[C@@H]([C@@H]2[C@H]5O)N3[C@@H]1O | 302.2 g
* CN(C)C(=N)N=C(N)N | 310.2 g
* O=NN(CCCl)C(=O)NC1CCCCC1 | 305.2 g

Provide reported TERMINAL_BW for each item, in the same order as listed.
1. OCCOCCN1CCN(C(c2ccccc2)c2ccc(Cl)cc2)CC1 (stereo unspecified) [HYDROXYZINE]
2. ClC(Cl)(Cl)Cl [CARBON TETRACHLORIDE]
3. CCCCc1oc2ccccc2c1C(=O)c1cc(I)c(OCCN(CC)CC)c(I)c1

-- reply
1. 336.5 g
2. 300.9 g
3. 312.1 g

---

# Species on record: Rattus norvegicus
# MEASUREMENT_PROTOCOL: Open TG-GATES - Regimen: Single
# Format: toxicity, organism-based, Sprague-Dawley
# Set-up: regimen Single, gender Male, age 6 weeks
# CONDITIONS_USED: in vivo, po, 0 mg/kg, 24 h, tissue Blood, route gavage, dose level Control
MEASUREMENT_LABEL: Plat

Would you please look over these solved cases?
• O=NN1CCOCC1 = 122.3 x10_4/uL
• CC[C@H]1[C@@H]2C[C@H]3[C@@H]4N(C)c5ccccc5[C@]45C[C@@H]([C@@H]2[C@H]5O)N3[C@@H]1O = 106.9 x10_4/uL
• CC(C)N(CCC(C(N)=O)(c1ccccc1)c1ccccn1)C(C)C (stereo unspecified) [DISOPYRAMIDE] = 117 x10_4/uL
• CCc1oc2ccccc2c1C(=O)c1cc(Br)c(O)c(Br)c1 = 115 x10_4/uL
• CCC1(c2ccccc2)C(=O)NC(=O)NC1=O = 132.6 x10_4/uL

Provide reported Plat for each item, in the same order as listed.
1. CN(C)C(=N)N=C(N)N
2. CC1=C(CC(=O)O)c2cc(F)ccc2/C1=C\c1ccc([S+](C)[O-])cc1 (stereo unspecified)
3. O=NN(CCCl)C(=O)NC1CCCCC1
4. OCCOCCN1CCN(C(c2ccccc2)c2ccc(Cl)cc2)CC1 (stereo unspecified) [HYDROXYZINE]

-- reply
115 x10_4/uL
140.1 x10_4/uL
100.3 x10_4/uL
114.8 x10_4/uL

Provide reported Plat for each item, in the same order as listed.
1. ClC(Cl)(Cl)Cl [CARBON TETRACHLORIDE]
2. CN(C)CCC=C1c2ccccc2COc2ccccc21 [DOXEPIN]

-- reply
1. 140.8 x10_4/uL
2. 116.4 x10_4/uL
